# credit: paper PMC5362474

system: HepG2 cells; assay: MTT proliferation assay on HepG2 cells; assay type: cell-based; conditions: Homo sapiens, 24 h
Quick reference: IC50 of the listed items.

{"columns": ["molecule", "result units", "IC50"],
 "data": [
  ["CC(C)=C1C/C=C(\\C)CC/C=C(\\C)CC1OC(=O)c1ccc(C)cc1 (stereo not shown) [Compound 3b]", "µM", 68.2],
  ["CC(C)=C1C/C=C(\\C)CC/C=C(\\C)CC1OC(=O)/C=C\\c1ccccc1 (stereo not shown) [Compound 3e]", "µM", 72.5],
  ["CC(C)=C1C/C=C(\\C)CC/C=C(\\C)CC1=O [Compound 1, germacrone, reference compound]", "µM", 170],
  ["CC(C)=C1C/C=C(\\C)CC/C=C(\\C)CC1O (stereo not shown) [Compound 2]", "µM", 155],
  ["CC(C)=C1C/C=C(\\C)CC/C=C(\\C)CC1OC(=O)c1cccc(C)c1 (stereo not shown) [Compound 3c]", "µM", 70.2],
  ["CC(=O)OC1C/C(C)=C/CC/C(C)=C/CC1=C(C)C (stereo not shown) [Compound 3a]", "µM", 148],
  ["CC(C)=C1C/C=C(\\C)CC/C=C(\\C)CC1OC(=O)c1ccc(C(F)(F)F)cc1 (stereo not shown) [Compound 3d]", "µM", 74.7]
]}

----------
Listed below: inhibition at 1.56 µM values for each entry.
target: recombinant human c-Met residues 974-end (Homo sapiens, UniProt P08581); construct: recombinant human c-Met residues 974-end; 6His; purchased Millipore; experiment: Inhibition of c-Met kinase (TR-FRET); format: biochemical; conditions: 1.56 μM; read-out: Inhibitory rate on c-Met kinase
Sequence (P08581 974-1390 limits assumed): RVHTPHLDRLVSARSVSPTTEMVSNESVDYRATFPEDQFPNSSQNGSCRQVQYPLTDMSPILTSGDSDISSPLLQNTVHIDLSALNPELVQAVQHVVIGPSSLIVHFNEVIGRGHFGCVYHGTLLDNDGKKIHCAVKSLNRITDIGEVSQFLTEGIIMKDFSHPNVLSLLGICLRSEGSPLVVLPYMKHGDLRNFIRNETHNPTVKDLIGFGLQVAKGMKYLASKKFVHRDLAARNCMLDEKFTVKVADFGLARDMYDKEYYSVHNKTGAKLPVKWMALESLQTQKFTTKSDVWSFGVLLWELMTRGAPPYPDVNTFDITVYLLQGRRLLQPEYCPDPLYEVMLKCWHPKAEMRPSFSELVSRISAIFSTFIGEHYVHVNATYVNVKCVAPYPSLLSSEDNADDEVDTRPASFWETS

{"columns": ["compound", "inhibition at 1.56 µM"],
 "data": [
  ["CC(C)=C1C/C=C(\\C)CC/C=C(\\C)CC1=O [Compound 1, germacrone, reference compound]", "58.8%"],
  ["CC(=O)OC1C/C(C)=C/CC/C(C)=C/CC1=C(C)C (stereo not drawn)", "58.5%"],
  ["CC(C)=C1C/C=C(\\C)CC/C=C(\\C)CC1OC(=O)c1ccc(C)cc1 (stereo not drawn)", "63.4%"]
]}

----------
target: recombinant human c-Met residues 974-end (Homo sapiens); construct: recombinant human c-Met residues 974-end; 6His; purchased Millipore; assay: Inhibition of c-Met kinase (TR-FRET); type: biochemical; settings: 0.39 μM; read-out: Inhibitory rate on c-Met kinase
Reported inhibition at 0.39 µM values for a set of compounds

{"columns": ["compound", "inhibition at 0.39 µM"],
 "data": [
  ["CC(C)=C1C/C=C(\\C)CC/C=C(\\C)CC1OC(=O)c1ccc(C(F)(F)F)cc1 (stereo not drawn)", "40.9%"],
  ["CC(=O)OC1C/C(C)=C/CC/C(C)=C/CC1=C(C)C (stereo not drawn)", "40%"],
  ["CC(C)=C1C/C=C(\\C)CC/C=C(\\C)CC1=O [Compound 1, germacrone, reference compound]", "39.1%"]
]}

----------
target: recombinant human c-Met residues 974-end (Homo sapiens); construct: recombinant human c-Met residues 974-end; 6His; assay: Inhibition of c-Met kinase (TR-FRET); conditions: TR-FRET; read-out: IC50 against c-Met kinase
Threshold check on IC50: strictly below 900 nM is YES; on or above 900 nM is NO.

{"columns": ["compound", "class"],
 "data": [
  ["CC(C)=C1C/C=C(\\C)CC/C=C(\\C)CC1OC(=O)/C=C\\c1ccccc1 (centres unmarked)", "YES"],
  ["CC(C)=C1C/C=C(\\C)CC/C=C(\\C)CC1OC(=O)c1ccc(C)cc1 (centres unmarked)", "YES"],
  ["CC(=O)OC1C/C(C)=C/CC/C(C)=C/CC1=C(C)C (centres unmarked)", "NO"],
  ["CC(C)=C1C/C=C(\\C)CC/C=C(\\C)CC1O (centres unmarked)", "NO"]
]}
